Listing of entries alongside the reported pEC50.
- targetOfAssay: TR alpha-LBD (thyroid hormone receptor alpha) (Homo sapiens (Human), UniProt P10827)
- Sequence (P10827 other isoform, or with tags, fused parts or gaps del 1-162, other chains not shown): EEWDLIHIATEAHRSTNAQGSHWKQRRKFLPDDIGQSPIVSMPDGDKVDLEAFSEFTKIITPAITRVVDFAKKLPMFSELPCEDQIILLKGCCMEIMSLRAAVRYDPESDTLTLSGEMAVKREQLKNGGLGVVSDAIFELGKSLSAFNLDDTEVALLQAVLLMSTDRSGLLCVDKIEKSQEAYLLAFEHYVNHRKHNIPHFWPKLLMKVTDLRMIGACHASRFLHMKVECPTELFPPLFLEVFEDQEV
- assayNotes: LanthaScreen TR-FRET Thyroid Receptor alpha Coactivator Assay (agonist screening)
- assayConditions: TR alpha-LBD 0.4 nM, 2 hour incubation, average of duplicate runs, read-out: EC50 THRα-FRET
pEC50: −log10 of the molar value.

{"compound": "CC(C)(O)c1cc(Oc2c(Cl)cc(NC(=O)c3noc(=O)[nH]3)cc2Cl)n[nH]c1=O [Example 33]", "targetOfAssay": "TR alpha-LBD (thyroid hormone receptor alpha) (Homo sapiens (Human), UniProt P10827)", "pEC50": "< 5.30"}
{"compound": "C[C@@H](O)c1cc(Oc2c(Cl)cc(NC(=O)c3noc(=O)[nH]3)cc2Cl)n[nH]c1=O [Example 29P1]", "targetOfAssay": "TR alpha-LBD (thyroid hormone receptor alpha) (Homo sapiens (Human), UniProt P10827)", "pEC50": "< 5.30"}
{"compound": "CC(CO)c1cc(Oc2c(Cl)cc(NC(=O)c3noc(=O)[nH]3)cc2Cl)n[nH]c1=O (stereo not shown) [Example 36]", "targetOfAssay": "TR alpha-LBD (thyroid hormone receptor alpha) (Homo sapiens (Human), UniProt P10827)", "pEC50": "< 5.30"}

# next compound below
Report pEC50 for O=C(Nc1cc(Cl)c(Cc2cc(C3CC3)c(=O)[nH]n2)c(Cl)c1)c1noc(=O)[nH]1 [Example 21] tested on TR alpha-LBD (thyroid hormone receptor alpha) (Homo sapiens (Human), UniProt P10827). < 5.30

Value source: patent US10800767B2
